- EXPERIMENT SUMMARY: Plasma and brain levels (pK/pD analysis)
- Assay type: in vivo, mice
- ASSAY CONTEXT: mouse, plasma, subcutaneous, 15 mg/kg, 15 mg/kg s.c., 0.25 h; 32 mA group; read-out: Co. No. 25-a mean plasma levels
OBSERVABLE: concentration at 0.25 h (ng/mL)
Just the number please, in ng/mL, no unit attached.

Task: Endpoint output: concentration at 0.25 h of CCCCn1ccc(N2CCC(c3ccc(F)cc3F)CC2)c(Cl)c1=O . Value?
Result: 1200

---

- EXPERIMENT SUMMARY: Plasma and brain levels (pK/pD analysis)
- Format: in vivo, mice
- ASSAY CONTEXT: mouse, plasma, subcutaneous, 20 mg/kg, 20 mg/kg s.c., 0.5 h; 32 mA group; read-out: Co. No. 25-a mean plasma levels
OBSERVABLE: concentration at 0.5 h (ng/mL)
Just the number please, in ng/mL, no unit attached.

Task: Endpoint output: concentration at 0.5 h of CCCCn1ccc(N2CCC(c3ccc(F)cc3F)CC2)c(Cl)c1=O . Value?
Result: 2800

---

- EXPERIMENT SUMMARY: Plasma and brain levels (pK/pD analysis)
- Assay type: in vivo, mice
- ASSAY CONTEXT: mouse, plasma, subcutaneous, 10 mg/kg, 10 mg/kg s.c.; 44 mA group; read-out: Co. No. 25-a mean plasma levels
OBSERVABLE: concentration at 0.25 h (ng/mL)
Just the number please, in ng/mL, no unit attached.

Task: Endpoint output: concentration at 0.25 h of CCCCn1ccc(N2CCC(c3ccc(F)cc3F)CC2)c(Cl)c1=O [Co. No. 25-a] . Value?
Result: 4340

---

- Test system: 6 Hz (32 mA) psychomotor seizures
- EXPERIMENT SUMMARY: 6 Hz psychomotor seizure test, 32 mA (incl. TPE determination)
- Assay type: in vivo, mice
- ASSAY CONTEXT: s.c., at TPE
OBSERVABLE: ED50 (95% CI) 32 mA

Task: Endpoint output: ED50 (95% CI) 32 mA of FC(F)(F)Cc1nnc2c(Cl)c(N3CCC(F)(c4ccccc4)CC3)ccn12 [Co. No. 11] . Value?
Result: 9.41 (1.53-15.1) mg/kg

---

- EXPERIMENT SUMMARY: Plasma and brain levels (pK/pD analysis)
- Format: in vivo, mice
- ASSAY CONTEXT: mouse, plasma, subcutaneous, 40 mg/kg, 40 mg/kg s.c.; 44 mA group; read-out: Co. No. 25-a mean plasma levels
OBSERVABLE: concentration at 0.25 h

Task: Endpoint output: concentration at 0.25 h of CCCCn1ccc(N2CCC(c3ccc(F)cc3F)CC2)c(Cl)c1=O . Value?
Result: 6260 ng/mL

---

- EXPERIMENT SUMMARY: Plasma and brain levels (pK/pD analysis)
- Format: in vivo, mice
- ASSAY CONTEXT: mouse, plasma, subcutaneous, 10 mg/kg, 10 mg/kg s.c., 0.25 h; 32 mA group; read-out: Co. No. 25-a mean plasma levels, statistical outlier removed
OBSERVABLE: concentration at 0.25 h (ng/mL)
Just the number please, in ng/mL, no unit attached.

Task: Endpoint output: concentration at 0.25 h of CCCCn1ccc(N2CCC(c3ccc(F)cc3F)CC2)c(Cl)c1=O . Value?
Result: 11000

---

- EXPERIMENT SUMMARY: Plasma and brain levels (pK/pD analysis)
- Format: in vivo, mice
- ASSAY CONTEXT: mouse, plasma, subcutaneous, 10 mg/kg, 10 mg/kg s.c., 1 h; 32 mA group; read-out: Co. No. 25-a mean plasma levels
OBSERVABLE: concentration at 1 h
For clarity, give the value followed by its unit.

Task: Endpoint output: concentration at 1 h of CCCCn1ccc(N2CCC(c3ccc(F)cc3F)CC2)c(Cl)c1=O [Co. No. 25-a] . Value?
Result: 700 ng/mL

---

- TEST SYSTEM: human mGlu2 receptor (Homo sapiens, UniProt Q14416)
- Construct: expressed in transfected cells; host or cells: CHO cells
- Sequence (Q14416 19-872): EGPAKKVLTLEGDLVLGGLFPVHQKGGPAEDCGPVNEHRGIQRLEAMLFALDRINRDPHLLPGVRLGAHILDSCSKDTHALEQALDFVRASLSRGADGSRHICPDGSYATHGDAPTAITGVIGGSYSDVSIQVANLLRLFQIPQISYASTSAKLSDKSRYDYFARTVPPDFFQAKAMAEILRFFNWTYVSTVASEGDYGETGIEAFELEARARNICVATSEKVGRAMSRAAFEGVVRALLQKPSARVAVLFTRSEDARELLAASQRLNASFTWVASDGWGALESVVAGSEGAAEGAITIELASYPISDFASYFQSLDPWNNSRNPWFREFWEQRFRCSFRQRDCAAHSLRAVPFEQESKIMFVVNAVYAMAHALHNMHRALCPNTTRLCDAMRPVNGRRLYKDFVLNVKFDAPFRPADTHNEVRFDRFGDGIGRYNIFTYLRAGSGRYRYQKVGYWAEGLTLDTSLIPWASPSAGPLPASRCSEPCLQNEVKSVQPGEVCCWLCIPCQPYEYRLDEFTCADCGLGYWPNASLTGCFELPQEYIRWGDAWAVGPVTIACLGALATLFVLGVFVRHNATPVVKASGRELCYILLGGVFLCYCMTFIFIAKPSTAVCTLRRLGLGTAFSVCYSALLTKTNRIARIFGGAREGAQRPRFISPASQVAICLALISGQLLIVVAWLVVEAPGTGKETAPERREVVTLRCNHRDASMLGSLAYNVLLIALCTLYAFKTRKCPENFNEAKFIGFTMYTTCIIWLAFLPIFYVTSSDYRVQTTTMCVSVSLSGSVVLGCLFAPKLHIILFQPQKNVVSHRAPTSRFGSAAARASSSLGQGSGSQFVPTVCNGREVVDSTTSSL
- EXPERIMENT SUMMARY: [35S]GTPγS binding assay, mGluR2 PAM
- Type: biochemical
- ASSAY CONTEXT: maximal % effect relative to control glutamate response; EC20 glutamate; read-out: GTPγS-hmGluR2 PAM Emax
OBSERVABLE: Emax (%)
Just the number please, in %, no unit attached.

Task: Endpoint output: Emax of O=c1c(Cl)c(N2CCC(CF)(c3ccccc3)CC2)ccn1CC1CC1 [Co. No. 21-a] . Value?
Result: 207

Task: Endpoint output: Emax of CC(Oc1ccc(F)cc1)c1ccn2c(CC3CC3)nnc2c1C(F)(F)F (stereo not shown) [Co. No. 1-b] . Value?
Result: 296

Task: Endpoint output: Emax of C[C@H](Oc1ccc(F)cc1F)c1ccn2c(CC3CC3)nnc2c1C(F)(F)F [Co. No. 6-b] . Value?
Result: 256

Task: Endpoint output: Emax of O=c1c(C(F)(F)F)c(N2CCC(c3ccccc3)CC2)ccn1CC1CC1 [Co. No. 4-a] . Value?
Result: 269

Task: Endpoint output: Emax of CCCCn1ccc(N2CCC(F)(c3ccccc3)CC2)c(Cl)c1=O [Co. No. 7-a] . Value?
Result: 291

Task: Endpoint output: Emax of O=c1c(Cl)c(N2CCC(OCCF)(c3ccccc3)CC2)ccn1CC1CC1 [Co. No. 20-a] . Value?
Result: 243

---

Form field: Emax (one value per entry).
- TEST SYSTEM: human mGlu2 receptor (Homo sapiens)
- Construct: expressed in transfected cells; host or cells: CHO cells
- EXPERIMENT SUMMARY: [35S]GTPγS binding assay, mGluR2 PAM
- Format: biochemical
- ASSAY CONTEXT: maximal % effect relative to control glutamate response; EC20 glutamate; read-out: GTPγS-hmGluR2 PAM Emax
Just the number please, in %, no unit attached.

Before answering, review these 10 worked examples.
Cc1cc(F)ccc1O[C@@H](C)c1ccn2c(CC3CC3)nnc2c1C(F)(F)F: 281
CCCCCn1ccc(N2CCC(c3ccccc3)CC2)c(Cl)c1=O: 249
O=c1c(Br)c(N2CCC(c3ccccc3)CC2)ccn1CC1CC1: 231
CC(C)(O)c1ccc(C2CCN(c3ccn(CC4CC4)c(=O)c3C3CC3)CC2)cc1: 222
FC(F)(F)c1c(N2CCN(c3ncccn3)CC2)ccn2c(CC3CC3)nnc12: 360
CC1(C)OC2(CCN(c3ccn4c(CC5CC5)nnc4c3C(F)(F)F)CC2)c2ccc(F)cc21: 263
CC1(C)OC2(CCN(c3ccn4c(CC(F)(F)F)nnc4c3Cl)CC2)c2ccccc21: 261
CC(C)CCn1ccc(N2CCC(c3ccc(F)cc3F)CC2)c(Cl)c1=O: 258
O=c1c(Cl)c(N2CCC(F)(c3ccccc3)CC2)ccn1CCC1CC1: 248
CC(Oc1ccc(F)cc1F)c1ccn2c(CC3CCC3)nnc2c1C(F)(F)F (single isomer, unassigned): 213

Task: Endpoint output: Emax of Fc1ccc(C2CCN(c3ccn4c(CC5CC5)nnc4c3Cl)CC2)c(F)c1 . Value?
Result: 357

Task: Endpoint output: Emax of O=c1c(C2CC2)c(N2CCC(c3ccccc3)CC2)ccn1CC1CC1 . Value?
Result: 157

Task: Endpoint output: Emax of CCCCn1ccc(N2CCC(c3ccc(C(C)(C)O)cc3F)CC2)c(Cl)c1=O . Value?
Result: 317

Task: Endpoint output: Emax of CCCCn1ccc(N2CCC3(CC2)OCc2ccccc23)c(Cl)c1=O . Value?
Result: 347

Task: Endpoint output: Emax of O=c1c(Cl)c(N2CCC(c3ccccc3Cl)CC2)ccn1CC1CC1 . Value?
Result: 253

Task: Endpoint output: Emax of O=c1c(Cl)c(N2CCC(c3ccccc3)CC2)ccn1CCC1CC1 . Value?
Result: 290
